The origin of these recorded values is patent US8658661B2.

Listed here are molecules together with their documented pIC50.
Molecular target: recombinant human FLAP protein (Homo sapiens)
Construct: made in house; host or cells: Sf9 insect cells (100,000×g membrane pellet used)
Sequence (P20292 1-161): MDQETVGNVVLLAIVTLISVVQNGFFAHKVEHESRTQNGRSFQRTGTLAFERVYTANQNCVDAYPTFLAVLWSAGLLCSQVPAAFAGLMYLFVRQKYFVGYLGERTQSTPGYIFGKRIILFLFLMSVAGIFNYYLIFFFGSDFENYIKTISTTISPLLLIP
Assay: FLAP binding assay (SPA, displacement of [125I]L-691,831)
Conditions: membranes of sf9 cells expressing recombinant human FLAP; [125I]L-691,831 probe; read-out: FLAP binding IC50
Formally, pIC50 is defined as -log10 of the concentration c, with c in mol/L.

Example results:
COc1ccc(-c2nc(C(C)(c3ccc(-c4cnc(N)nc4)cc3)C(C)C)no2)cn1 (centres unmarked) = 8.42
CC(C)C(C)(c1ccc(-c2cnc(N)nc2)cc1)c1noc(C2(C)CCCCC2)n1 (centres unmarked) = 7.40
CNC(=O)Cn1cc(-c2nc([C@](C)(c3ccc(-c4cnc(N)nc4)cc3)C3CC3)no2)cn1 = 6.92
CC(C)C(C)(c1ccc(-c2cnc(N)nc2)cc1)c1noc(-c2ccn(C)n2)n1 (centres unmarked) = 8.34
CC(C)C(C)(c1ccc(-c2cnc(N)nc2)cc1)c1noc(N2CCN(CCO)CC2)n1 (centres unmarked) = 7.70
CC(C)[C@@](C)(c1ccc(-c2cnc(N)nc2)cc1)c1noc(-c2cnn(CC(C)(C)O)c2)n1 = 8.06
CC(C)(CO)Nc1cnc(-c2nc([C@](C)(c3ccc(-c4cnc(N)nc4)cc3)C3CC3)no2)cn1 (single isomer, unassigned) = 8.17
CC(C)C(C)(c1ccc(-c2cnc(N)nc2)cc1)c1noc(N2CCOCC2)n1 (centres unmarked) = 7.89

State its pIC50 for this molecule: COc1cncc(-c2ccc(C(C)(c3noc(-c4cnccn4)n3)C(C)C)cc2)c1 (centres unmarked)
7.24

State its pIC50 for this molecule: CC(C)C(C)(c1ccc(-c2cnc(N)nc2)cc1)c1noc(N2CC(O)C2)n1 (centres unmarked)
7.82

State its pIC50 for this molecule: "Cn1cc(-c2nc(C(C)(C)c3ccc(-c4cnc(N)nc4)cc3)no2)cn1"
8.17
